# Lookup of reported growth keyed by entry
# System: NCI-H23 lung
# measurement protocol: NCI-60 one-dose screen, 48 h (100 = growth as untreated, 0 = no growth, -100 = all killed)
# experimental setup: 10 µM unless noted
The panel holds about 83,000 compounds, 20% with a hit somewhere; the sample as a whole holds those more often.
parameter: growth (%)

# molecule, parameter, observed value
data = [
    ("O=C(N/N=C/c1ccc(Cl)cc1)c1ccc(C(F)(F)F)nc1Nc1cccc(C(F)(F)F)c1", "growth", -36.7),
    ("O=C(Nc1c2ccccc2nc2ccccc12)c1ccccc1CN1C(=O)c2ccccc2C1=O", "growth", 28.6),
    ("C#C[C@]1(O)CC[C@H]2[C@@H]3CC=C4c5sc(Nc6ccccc6)nc5CC[C@]4(C)[C@H]3CC[C@@]21C", "growth", 39.1),
    ("COc1ccc(C(=O)n2nc(-c3ccccc3)nc2N)cc1OC", "growth", 93.9),
    ("O=C(O)C(c1ccccc1)N1C(=O)CSC1=S (stereo unspecified)", "growth", 106),
    ("CSc1ncccc1C(=O)OCC(=O)Nc1oc(C)c2c(C)n[nH]c(=O)c12", "growth", 99.3),
    ("O=c1c2cc(F)ccc2sc2c(NCCN3CCOCC3)nc3ccccc3c12", "growth", 85.1),
    ("O=C1CCC/C=C\\C[C@H]2C=CC(=O)/C2=C/C[C@H](CCc2cccc(C(F)(F)F)c2)O1", "growth", -22),
    ("COc1cc(/C=C/c2c(C(C)=O)c(C)nc3ccccc23)cc(OC)c1OC", "growth", 52.8),
    ("[O-][n+]1c2ccccc2[n+]([O-])c2c3ccccc3[nH]c21", "growth", 71.5),
    ("CCCCN(C)N=Nc1ccc(C(N)=O)cc1", "growth", 102),
    ("O=C(/C=C/c1sc(Cl)nc1Cl)c1ccccc1", "growth", 95.2),
    ("Cc1[nH]c(C(=O)Nc2ccc(C(=O)N3CCNCC3)cc2OC(C)C)c(Cl)c1Cl", "growth", 90.7),
    ("CCOC(=O)c1cn2ncnc(Oc3ccc(NC(=O)NCCN(CC)CC)c(Cl)c3)c2c1C", "growth", 76.6),
    ("COc1cccc(/C=C2\\C=C(c3ccccc3)N(Cc3ccccc3)C2=O)c1", "growth", 71.1),
    ("COc1cc(/C=C/C(=O)/C=C/c2cc(OC)c3c(c2OC)OCO3)c(OC)c2c1OCO2", "growth", 33.2),
    ("COc1cc(C(=O)c2cnc(-c3cccc4[nH]ccc34)[nH]2)cc(OC)c1OC", "growth", 26.4),
    ("COc1cc(CCC[P+](c2ccccc2)(c2ccccc2)c2ccccc2)c(OC)c2c1OCO2", "growth", 19.3),
    ("COc1nc2ccc(C)cc2cc1-c1nc2c(cnn2-c2ccccc2)c(=O)[nH]1", "growth", 80.5),
    ("NCCNc1nc2ccccc2c2c(=O)c3cccc(F)c3sc12", "growth", 70),
    ("O=C(/C=C/c1sc(Cl)nc1Cl)c1ccc(Br)cc1", "growth", 85.8),
]
